Biological target: KRas G12D mutant protein (Homo sapiens (Human), UniProt P01116, G12D)
Sequence (P01116-2 other isoform, or with tags, fused parts or gaps G12D): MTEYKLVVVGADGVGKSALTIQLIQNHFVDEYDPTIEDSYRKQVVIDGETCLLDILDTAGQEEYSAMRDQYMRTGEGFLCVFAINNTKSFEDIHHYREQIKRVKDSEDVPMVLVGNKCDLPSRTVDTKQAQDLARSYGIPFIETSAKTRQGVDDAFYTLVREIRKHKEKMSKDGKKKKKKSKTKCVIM
Experiment: Ras GTP binding domain inhibition assay (labeled GTP)
Details: at 20 μM; read-out: KRas G12D % Inh.
Assay Metric: inhibition at 20 µM

>  <Molecule>
COc1ccccc1-c1csc2c(O)nc(-c3ccccn3)nc12 [drawing 3742]

>  <Endpoint Result>
51 to 75%

$$$$
>  <Molecule>
COCCNc1nc(-c2nccn2C)nc2sc(C)c(-c3ccccc3)c12 [drawing 3902]

>  <Endpoint Result>
51 to 75%

$$$$
>  <Molecule>
COC(C)(C)c1ccc(-c2csc3c(O)nc(-c4nccn4C)nc23)cc1 [drawing 3936]

>  <Endpoint Result>
25 to 50%

$$$$
>  <Molecule>
CC(C)Oc1ccc(-c2c(-c3ccccc3)sc3c(O)nc(-c4nccn4C)nc23)cc1F [drawing 3929]

>  <Endpoint Result>
25 to 50%

$$$$
>  <Molecule>
Cc1sc2c(O)nc(-c3ccccn3)nc2c1-c1ccccc1Cl [drawing 3833]

>  <Endpoint Result>
51 to 75%

$$$$

* * *

Target: KRas G12D/Q61H double mutant (Homo sapiens (Human), UniProt P01116, G12D/Q61H)
Sequence (P01116-2 other isoform, or with tags, fused parts or gaps G12D/Q61H): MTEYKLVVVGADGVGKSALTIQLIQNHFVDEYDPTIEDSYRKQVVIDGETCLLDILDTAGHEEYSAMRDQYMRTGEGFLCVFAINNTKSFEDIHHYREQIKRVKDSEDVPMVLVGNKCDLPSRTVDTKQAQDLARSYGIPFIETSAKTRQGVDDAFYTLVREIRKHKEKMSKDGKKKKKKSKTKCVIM
Experiment: Ras GTP binding domain inhibition assay (labeled GTP)
Settings: 20 μM; read-out: KRas G12D Q61H % Inh.
Assay Metric: inhibition at 20 µM

>  <Compound>
O=C(COc1ccc(F)cc1F)Nc1nnc(-c2ccccn2)[nH]1 [drawing 2458]

>  <Endpoint Result>
51 to 75%

$$$$
>  <Compound>
O=C(Nc1nnc(-c2ccccn2)[nH]1)c1cccc(NC(=O)C2CCCO2)c1 (stereo not drawn) [drawing 2498]

>  <Endpoint Result>
51 to 75%

$$$$
>  <Compound>
COc1ccc(CN(CC[S+]([O-])c2cc(Cl)ccc2Cl)C2CC2)cc1 (stereo not drawn) [drawing 2625]

>  <Endpoint Result>
25 to 50%

$$$$
>  <Compound>
CC(C)c1noc(CCCC(=O)Nc2nnc(-c3ccccn3)[nH]2)n1 [drawing 2483]

>  <Endpoint Result>
51 to 75%

$$$$
>  <Compound>
CC(Oc1ccccc1C#N)C(=O)Nc1nnc(-c2ccccn2)[nH]1 (stereo not drawn) [drawing 2510]

>  <Endpoint Result>
51 to 75%

$$$$
>  <Compound>
CN(Cc1nnc(-c2ccccc2Cl)o1)Cc1ccccc1C(F)(F)F [drawing 2482]

>  <Endpoint Result>
51 to 75%

$$$$
>  <Compound>
O=C(Nc1nnc(-c2ccccn2)[nH]1)c1ccc(OCC2CC2)cc1 [drawing 2522]

>  <Endpoint Result>
51 to 75%

$$$$
>  <Compound>
CCOc1cc(S(=O)(=O)N(Cc2ccccc2)Cc2ccccc2)c(OCC)cc1C [drawing 2624]

>  <Endpoint Result>
25 to 50%

$$$$
>  <Compound>
O=C(Nc1nnc(-c2ccccn2)[nH]1)c1nc(N2CCOCC2)ncc1Cl [drawing 2508]

>  <Endpoint Result>
51 to 75%

$$$$

* * *

Listed here: items and their measured inhibition at 20 µM.
Molecular target: KRas G12D mutant protein (Homo sapiens (Human), UniProt P01116, G12D)
Experiment: Ras GTP binding domain inhibition assay (labeled GTP)
Conditions: 20 μM compound; KRas G12D; read-out: % Inhibition at 20 μM of K-Ras mutant and wild-type protein, KRas G12D

>  <Compound>
COCCNc1nc(-c2nccn2C)nc2sc(-c3ccccc3Cl)c(-c3ccccc3)c12 [drawing 3581]

>  <Study System>
KRas G12D mutant protein (Homo sapiens (Human), UniProt P01116, G12D)

>  <inhibition at 20 µM>
1 to 25%

$$$$
>  <Compound>
CCN(CC)CCOc1nc(-c2nccn2C)nc2sc(-c3ccccc3)c(-c3ccccc3)c12 [drawing 3573]

>  <Study System>
KRas G12D mutant protein (Homo sapiens (Human), UniProt P01116, G12D)

>  <inhibition at 20 µM>
25 to 50%

$$$$
>  <Compound>
COCCNc1nc(-c2cn(C)cn2)nc2sc(-c3ccccc3)c(-c3ccccc3)c12 [drawing 3583]

>  <Study System>
KRas G12D mutant protein (Homo sapiens (Human), UniProt P01116, G12D)

>  <inhibition at 20 µM>
25 to 50%

$$$$
>  <Compound>
COc1ccc(CCC(=O)Nc2nc(-c3ccccn3)nc3sccc23)cn1 [drawing 3493]

>  <Study System>
KRas G12D mutant protein (Homo sapiens (Human), UniProt P01116, G12D)

>  <inhibition at 20 µM>
51 to 75%

$$$$
>  <Compound>
COCCNc1nc(-c2ccccn2)nc2sc(-c3ccccc3)c(-c3ccccn3)c12 [drawing 3620]

>  <Study System>
KRas G12D mutant protein (Homo sapiens (Human), UniProt P01116, G12D)

>  <inhibition at 20 µM>
1 to 25%

$$$$
>  <Compound>
Cn1ccnc1-c1nc(O)c2sc(-c3ccccc3)c(-c3cccc(C(F)(F)F)c3)c2n1 [drawing 3592]

>  <Study System>
KRas G12D mutant protein (Homo sapiens (Human), UniProt P01116, G12D)

>  <inhibition at 20 µM>
0%

$$$$
>  <Compound>
CC(C)Cc1csc2c(O)nc(-c3ccccn3)nc12 [drawing 3494]

>  <Study System>
KRas G12D mutant protein (Homo sapiens (Human), UniProt P01116, G12D)

>  <inhibition at 20 µM>
51 to 75%

$$$$
>  <Compound>
Cc1ccccc1-c1c(C)sc2c(O)nc(-c3nccn3C)nc12

>  <Study System>
KRas G12D mutant protein (Homo sapiens (Human), UniProt P01116, G12D)

>  <inhibition at 20 µM>
25 to 50%

$$$$
>  <Compound>
Nc1cccc(-c2csc3c(O)nc(-c4ccccn4)nc23)n1 [drawing 3514]

>  <Study System>
KRas G12D mutant protein (Homo sapiens (Human), UniProt P01116, G12D)

>  <inhibition at 20 µM>
51 to 75%

$$$$
>  <Compound>
Oc1nc(-c2ccccn2)nc2c(C3CC3)csc12 [drawing 3518]

>  <Study System>
KRas G12D mutant protein (Homo sapiens (Human), UniProt P01116, G12D)

>  <inhibition at 20 µM>
51 to 75%

$$$$
>  <Compound>
CC(C)OCCNc1nc(-c2nccn2C)nc2sc(-c3ccccc3)c(-c3ccccc3)c12 [drawing 3567]

>  <Study System>
KRas G12D mutant protein (Homo sapiens (Human), UniProt P01116, G12D)

>  <inhibition at 20 µM>
51 to 75%

$$$$
>  <Compound>
COc1ccc(-c2c(C)sc3c(O)nc(-c4nccn4C)nc23)cn1 [drawing 3601]

>  <Study System>
KRas G12D mutant protein (Homo sapiens (Human), UniProt P01116, G12D)

>  <inhibition at 20 µM>
1 to 25%

$$$$
>  <Compound>
CN(C)CCOc1cccc(-c2csc3c(O)nc(-c4ccccn4)nc23)c1 [drawing 3492]

>  <Study System>
KRas G12D mutant protein (Homo sapiens (Human), UniProt P01116, G12D)

>  <inhibition at 20 µM>
76 to 100%

$$$$
>  <Compound>
COc1nc(-c2ccccn2)nc2c(C3CCC3)csc12 [drawing 3480]

>  <Study System>
KRas G12D mutant protein (Homo sapiens (Human), UniProt P01116, G12D)

>  <inhibition at 20 µM>
1 to 25%

$$$$
>  <Compound>
Cc1c(C(=O)O)sc2c(O)nc(-c3ccccn3)nc12 [drawing 3475]

>  <Study System>
KRas G12D mutant protein (Homo sapiens (Human), UniProt P01116, G12D)

>  <inhibition at 20 µM>
25 to 50%

$$$$
>  <Compound>
Cn1ccnc1-c1nc(O)c2sc(-c3ccccc3)c(-c3ccccc3Cl)c2n1 [drawing 3595]

>  <Study System>
KRas G12D mutant protein (Homo sapiens (Human), UniProt P01116, G12D)

>  <inhibition at 20 µM>
51 to 75%

$$$$
>  <Compound>
COCCNc1nc(-c2nccn2C)nc2sc(-c3cccc(OC)c3)c(-c3ccccc3)c12 [drawing 3586]

>  <Study System>
KRas G12D mutant protein (Homo sapiens (Human), UniProt P01116, G12D)

>  <inhibition at 20 µM>
25 to 50%

$$$$
>  <Compound>
Oc1nc(-c2ccccn2)nc(Oc2cccc(C(F)(F)F)c2)c1O [drawing 3558]

>  <Study System>
KRas G12D mutant protein (Homo sapiens (Human), UniProt P01116, G12D)

>  <inhibition at 20 µM>
51 to 75%

$$$$

Where do these numbers come from? They come from patent US10940139B2.
